- System: 565232-114-T-J1-PDC complex spheroid viability;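 note: spheroids exposed to compounds for 7 days before readout; 100% = DMSO vehicle wells with luminescence normalized to vehicle control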
- ASSAY_EXPLANATION: Anticancer human tumor 565232-114-T-J1-PDC patient-derived bladder carcinoma cell line growth inhibition [CLK]
- CONDITION_SUMMARY: second compound 10 µM; first compound 0.0949 µM; active compounds read low
QUANTITY_MEASURED: viability, T/C

Form field viability, T/C, entry NC(=O)C(=Cn1cnc(-c2cc(C(F)(F)F)cc(C(F)(F)F)c2)n1)c1cncnc1 + CN1CCN(c2cc(C(=O)Nc3cc4cc(-c5cnn(C)c5)ccc4cn3)ccn2)CC1 : 1.13%

// NC(=O)C(=Cn1cnc(-c2cc(C(F)(F)F)cc(C(F)(F)F)c2)n1)c1cncnc1 + CNC(=O)c1ccc(Nc2nc(OC3CCCC3)c3c(-c4ccc5nc(C)oc5c4)c[nH]c3n2)c(OC)c1 : viability, T/C value = 11.7%

The reported value for CC(C)CC(NC(=O)C(Cc1ccccc1)NC(=O)c1cnccn1)B(O)O (stereo unspecified) + CN1CCN(c2cc(C(=O)Nc3cc4cc(-c5cnn(C)c5)ccc4cn3)ccn2)CC1 in terms of viability, T/C is 1.45%

Data point: CC(C)CC(NC(=O)C(Cc1ccccc1)NC(=O)c1cnccn1)B(O)O (stereo unspecified) + CNC(=O)c1ccc(Nc2nc(OC3CCCC3)c3c(-c4ccc5nc(C)oc5c4)c[nH]c3n2)c(OC)c1 ; viability, T/C = 0.51%

Form field viability, T/C, entry C=CC(=O)Nc1cc(Nc2nccc(-c3cn(C)c4ccccc34)n2)c(OC)cc1N(C)CCN(C)C + CN1CCN(c2cc(C(=O)Nc3cc4cc(-c5cnn(C)c5)ccc4cn3)ccn2)CC1 : 1.9%

// sample C=CC(=O)Nc1cc(Nc2nccc(-c3cn(C)c4ccccc34)n2)c(OC)cc1N(C)CCN(C)C + CNC(=O)c1ccc(Nc2nc(OC3CCCC3)c3c(-c4ccc5nc(C)oc5c4)c[nH]c3n2)c(OC)c1 , its viability, T/C was 14%

Entry source: PubChem BioAssay AID2060612
